Biological target: endogenously expressed human MSR1 on PMA-treated THP-1 cells (human) (UniProt P21757)
Sequence (P21757 whole entry): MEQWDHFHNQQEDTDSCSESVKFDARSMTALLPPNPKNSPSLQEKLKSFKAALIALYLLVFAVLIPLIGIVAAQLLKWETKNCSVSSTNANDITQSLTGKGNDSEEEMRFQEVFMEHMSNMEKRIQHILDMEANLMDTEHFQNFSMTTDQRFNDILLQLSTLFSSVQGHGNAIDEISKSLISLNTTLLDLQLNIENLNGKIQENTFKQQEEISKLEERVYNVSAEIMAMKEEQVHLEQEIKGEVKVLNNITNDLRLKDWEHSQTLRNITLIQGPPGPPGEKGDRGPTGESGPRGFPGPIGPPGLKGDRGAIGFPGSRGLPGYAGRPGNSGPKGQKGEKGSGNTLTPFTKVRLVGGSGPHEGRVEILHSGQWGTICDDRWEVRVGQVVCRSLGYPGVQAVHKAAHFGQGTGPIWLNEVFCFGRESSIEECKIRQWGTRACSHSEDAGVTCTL
Assay: ECL cell binding, PMA-treated THP-1 cells
In this section, each of the binders is paired with its reported ratio of 11 nM antibody binding signal (RLU) to isotype control.
Respond using a number only.

Illustrative cases are given below, each with its answer.
binder	result_number
H1H21234N-N297Q (antibody, human IgG1, V domains shown) VH: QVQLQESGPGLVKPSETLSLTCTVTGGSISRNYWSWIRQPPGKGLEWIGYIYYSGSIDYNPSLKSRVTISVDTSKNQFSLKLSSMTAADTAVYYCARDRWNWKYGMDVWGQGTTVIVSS VL: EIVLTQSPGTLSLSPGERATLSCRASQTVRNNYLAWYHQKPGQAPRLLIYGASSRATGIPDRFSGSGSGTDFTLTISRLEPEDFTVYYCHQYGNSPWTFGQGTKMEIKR	25
H1H21231N-N297Q (antibody, human IgG1, V domains shown) VH: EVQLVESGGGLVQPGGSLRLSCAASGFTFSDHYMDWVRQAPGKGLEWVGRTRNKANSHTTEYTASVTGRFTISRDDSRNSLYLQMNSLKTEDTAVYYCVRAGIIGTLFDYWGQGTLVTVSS VL: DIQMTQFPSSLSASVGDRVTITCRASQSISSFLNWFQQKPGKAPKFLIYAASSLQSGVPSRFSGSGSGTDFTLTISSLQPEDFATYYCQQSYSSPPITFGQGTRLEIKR	45

Prompt: # lookup: ratio of 11 nM antibody binding signal (RLU) to isotype control of H1H21234N (antibody, human IgG1, V domains shown) VH: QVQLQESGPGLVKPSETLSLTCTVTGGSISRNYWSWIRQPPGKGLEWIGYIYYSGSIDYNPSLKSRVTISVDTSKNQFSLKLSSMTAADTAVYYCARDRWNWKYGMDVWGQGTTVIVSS VL: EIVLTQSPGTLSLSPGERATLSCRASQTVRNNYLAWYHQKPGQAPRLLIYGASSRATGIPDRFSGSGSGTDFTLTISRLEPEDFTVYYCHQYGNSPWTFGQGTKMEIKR
Response: 18
